Origin of measurements: patent US20080014133A1

Each item that follows carries a reported Distribution ratios of sodium.
assay: Influence of nitric acid concentration on extraction of sodium; type: physicochemical; conditions: nitric acid 0.5 mol/l; crown ether about 0.1 mol/l in Fluoroheptanol n3

Sample answers from the record:
[[record]]
compound = "CC(C)(C)c1ccc2c(c1)OCCOCCOc1ccc(C(C)(C)C)cc1OCCOCCO2 [DTBDB18C6, bis(tert-butylbenzo)-18-crown-6]"
endpoint_value = 0.17

[[record]]
compound = "c1ccc2c(c1)OCCOCCOc1ccccc1OCCOCCO2 [DB18C6, dibenzo-18-crown-6]"
endpoint_value = 0.15

[[record]]
compound = "C1CCC2OCCOCCOC3CCCCC3OCCOCCOC2C1 (stereo not shown) [DCH18C6, bicyclohexane-18-crown-6]"
endpoint_value = 0.12


IN: What does the data say about its Distribution ratios of sodium? Entry: c1ccc2c(c1)OCCOCCOCCOc1ccccc1OCCOCCO2 [DB21C7, dibenzo-21-crown-7]
OUT: 0.005
